target: norepinephrine transporter site (Rattus norvegicus); construct: tissue NovaScreen (performed the assay); host or cells: rat forebrain membranes; assay: Norepinephrine reuptake inhibition assay ([3H]nisoxetine binding, rat forebrain membranes); settings: @ 100 nM (top number); Table I; read-out: NE Uptake mean % inhibition
Could you label it TRUE if measured inhibition at 0.1 µM is 7% or higher, and FALSE otherwise?

Example entries begin here.
>  <Compound>
Cc1ccc(F)cc1C(CCN)c1cc(F)ccc1C [Compound 58]

>  <Class assignment>
FALSE

$$$$
>  <Compound>
Cc1ccccc1OC(CCN)c1cccc(F)c1 (centres unmarked) [Compound 181]

>  <Class assignment>
TRUE

$$$$
>  <Compound>
CNCCC(Oc1cccc(F)c1)c1cccc(F)c1 (centres unmarked) [Compound 145]

>  <Class assignment>
TRUE

$$$$
>  <Compound>
CNC[C@H](C)C(c1cccc(F)c1)c1cccc(F)c1 [Compound 66]

>  <Class assignment>
FALSE

$$$$
>  <Compound>
NCCC1c2ccccc2CCc2ccc(F)cc21 (centres unmarked) [Compound 197]

>  <Class assignment>
FALSE

$$$$
>  <Compound>
COc1ccccc1OC(CCN)c1cccc(F)c1 (centres unmarked) [Compound 121]

>  <Class assignment>
TRUE

$$$$

We now examine a further compound.
Task: Say whether CCNCCC(c1cccc(F)c1)c1cccc(F)c1 [Compound 59] shows inhibition at 0.1 µM of 7% or more.
Output: TRUE

* * *

biological target: norepinephrine transporter site (Rattus norvegicus, UniProt Q63380); construct: tissue NovaScreen (performed the assay); host or cells: rat forebrain membranes; assay: Norepinephrine reuptake inhibition assay ([3H]nisoxetine binding, rat forebrain membranes); details: Table I; read-out: NE Uptake Ki
Sequence (Q63380 1-617): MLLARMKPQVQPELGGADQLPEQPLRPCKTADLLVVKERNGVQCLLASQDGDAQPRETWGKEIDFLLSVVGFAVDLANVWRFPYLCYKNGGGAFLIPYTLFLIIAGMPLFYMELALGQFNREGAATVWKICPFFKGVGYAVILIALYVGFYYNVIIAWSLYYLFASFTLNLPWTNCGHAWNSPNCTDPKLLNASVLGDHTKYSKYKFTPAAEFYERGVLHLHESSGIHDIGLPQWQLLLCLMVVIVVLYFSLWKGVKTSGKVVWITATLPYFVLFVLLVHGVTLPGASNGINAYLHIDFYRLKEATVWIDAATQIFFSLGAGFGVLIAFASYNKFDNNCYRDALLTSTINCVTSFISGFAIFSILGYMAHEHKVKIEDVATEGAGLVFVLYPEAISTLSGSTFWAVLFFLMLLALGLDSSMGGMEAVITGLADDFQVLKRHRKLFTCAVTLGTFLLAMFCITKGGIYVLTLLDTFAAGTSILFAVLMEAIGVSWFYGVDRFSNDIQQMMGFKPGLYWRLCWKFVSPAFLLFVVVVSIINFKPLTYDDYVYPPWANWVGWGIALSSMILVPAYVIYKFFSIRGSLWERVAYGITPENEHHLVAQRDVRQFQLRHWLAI
Where a name gives a salt, the structure may show the parent alone.
For each entry below, report its Ki value.
Give bare numbers, in nM.

>  <Compound>
NCCC(Oc1ccccc1F)c1cccc(F)c1 (stereo not drawn) [Compound 122]

>  <Value measured>
103

$$$$
>  <Compound>
N[C@@H]1CCCC1C(c1cccc(F)c1)c1cccc(F)c1 (stereo partly drawn) [Compound 64]

>  <Value measured>
508

$$$$
>  <Compound>
NCCC1c2ccccc2CCc2ccccc21 [Compound 156, hydrochloride]

>  <Value measured>
570

$$$$

For the 2 compounds below, give their Ki values.
1. NCC[C@@H](Oc1cccc(F)c1)c1cccc(F)c1 [Compound 191]
2. NCC[C@H](Oc1cccc(F)c1)c1cccc(F)c1 [Compound 192]

Output:
638
325

* * *

target: NMDA receptor; construct: rat cortex membranes; assay: [3H]MK-801 binding assay (rat cortex synaptic plasma membranes); settings: read-out: [3H]MK-801 data IC50, Table I
For each entry below, report its pIC50 value.
Give bare numbers, as −log10 of the molar value.

Below are worked cases with known answers.
>  <Compound>
CNC[C@H](C)C(c1cccc(F)c1)c1cccc(F)c1

>  <pIC50>
5.92

$$$$
>  <Compound>
NCCC1c2ccccc2COc2ccccc21 (stereo not shown)

>  <pIC50>
5.70

$$$$
>  <Compound>
NCCC(Oc1ccccc1)c1cccc(F)c1 (stereo not shown)

>  <pIC50>
6.62

$$$$
>  <Compound>
NCCC1c2ccccc2C=Cc2ccccc21

>  <pIC50>
5.82

$$$$
>  <Compound>
NCCC(Oc1cccc(Cl)c1)c1cccc(Cl)c1 (stereo not shown)

>  <pIC50>
6.82

$$$$

For the 2 compounds below, give their pIC50 values.
1. CNCCC(c1ccccc1)c1ccccc1
2. C[C@@H](CN)C(c1cccc(F)c1)c1cccc(F)c1

Output:
5.54
6.74
